study-system: human p38 kinase alpha (Homo sapiens, UniProt Q16539)
Construct: GST (N, cleaved yes); made in house; host or cells: E. coli DH10B
Sequence (Q16539 whole entry): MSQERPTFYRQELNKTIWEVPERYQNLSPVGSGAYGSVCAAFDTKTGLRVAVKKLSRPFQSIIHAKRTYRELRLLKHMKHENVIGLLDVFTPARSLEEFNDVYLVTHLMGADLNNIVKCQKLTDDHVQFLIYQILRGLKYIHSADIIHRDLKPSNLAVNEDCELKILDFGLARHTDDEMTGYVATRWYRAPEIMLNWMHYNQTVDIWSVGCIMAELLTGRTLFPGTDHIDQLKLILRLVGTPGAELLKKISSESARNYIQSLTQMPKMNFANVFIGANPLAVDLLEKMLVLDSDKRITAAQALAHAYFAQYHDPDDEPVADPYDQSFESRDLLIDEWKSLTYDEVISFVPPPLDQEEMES
experiment-summary: p38 kinase in vitro assay, phosphorylation of biotinylated PHAS-I with 32P-ATP
Assay type: biochemical
applied-conditions: in vitro P38-alpha kinase; read-out: P38 alpha kinase IC50
observed-property: IC50 (nM)

structure-as-smiles	study-system	measurement-units	IC50
Cc1c(-c2ccncc2)c(-c2ccc(F)cc2)nn1CC(=O)NCc1ccc(C(C)(C)C)cc1	human p38 kinase alpha (Homo sapiens, UniProt Q16539)	nM	2370
O=C(c1cc(F)cc(F)c1)N1CCC(c2[nH]nc(-c3ccc(F)cc3)c2-c2ccncc2)CC1	human p38 kinase alpha (Homo sapiens, UniProt Q16539)	nM	1410
O=C(c1ccco1)N1CCC(c2[nH]nc(-c3ccc(F)cc3)c2-c2ccncc2)CC1	human p38 kinase alpha (Homo sapiens, UniProt Q16539)	nM	1.2

a: Cc1c(-c2ccncc2)c(-c2ccc(F)cc2)nn1CC(=O)NCCC#N
b: O=S(=O)(c1cccc(Br)c1)N1CCC(c2[nH]nc(-c3ccc(F)cc3)c2-c2ccncc2)CC1
Lookup: // compare measured IC50, left a , right b , return larger Output the label that corresponds to your choice.
Found: a

P: CCCS(=O)(=O)N1CCC(c2[nH]nc(-c3ccc(F)cc3)c2-c2ccncc2)CC1
Q: Cc1c(-c2ccncc2)c(-c2ccc(F)cc2)nn1CC(=O)NCc1cccc2ccccc12
R: O=C(NCCCc1[nH]nc(-c2ccc(F)cc2)c1-c1ccncc1)c1cccc(Cl)c1
S: O=C(c1ccc(Cl)cc1Cl)N1CCC(c2[nH]nc(-c3ccc(F)cc3)c2-c2ccncc2)CC1
T: Cn1cnc(S(=O)(=O)N2CCC(c3[nH]nc(-c4ccc(F)cc4)c3-c3ccncc3)CC2)c1
Lookup: Sort low-to-high on IC50, please. The reply should contain the labels ordered as requested.
Found: R, S, T, P, Q
(R: 13 nM, S: 69 nM, T: 190 nM, P: 360 nM, Q: 2290 nM)

====

study-system: human p38 kinase alpha (Homo sapiens, UniProt Q16539)
Construct: GST (N, cleaved yes); made in house; host or cells: E. coli DH10B
experiment-summary: p38 kinase in vitro assay, phosphorylation of biotinylated PHAS-I with 32P-ATP
Type: biochemical
applied-conditions: @ 10.0 uM
observed-property: P38 alpha kinase IC50, uM or % inhib @ conc. (uM): % inhib (% 2)

structure-as-smiles	study-system	measurement-units	recorded-measurement
Cc1c(-c2ccncc2)c(-c2ccc(F)cc2)nn1CC(=O)Nc1c(Cl)cccc1Cl	human p38 kinase alpha (Homo sapiens, UniProt Q16539)	% 2	89.0
Cc1c(-c2ccncc2)c(-c2ccc(F)cc2)nn1CC(=O)Nc1ccccc1F	human p38 kinase alpha (Homo sapiens, UniProt Q16539)	% 2	86.0

====

study-system: human p38 kinase alpha (Homo sapiens, UniProt Q16539)
Construct: GST (N, cleaved yes); made in house; host or cells: E. coli DH10B
experiment-summary: p38 kinase in vitro assay, phosphorylation of biotinylated PHAS-I with 32P-ATP
Format: biochemical
applied-conditions: @ 10.0 uM
Description: The coding region of the human p38a cDNA was obtained by PCR-amplification from RNA isolated from the human monocyte cell line THP.1. […] Random primer, dNTP's and Superscript™ reagents were all purchased from Life-Technologies, Gaithersburg, Mass. The reaction was incubated at 42° C. for 1 hour. […]
observed-property: P38 alpha kinase % inhib @ conc. (% @)

compound	recorded-measurement
CCN1CCN(C(=O)Cn2nc(-c3ccc(F)cc3)c(-c3ccncc3)c2C)CC1	65.0

a: CCCC(CCC)NC(=O)Cn1nc(-c2ccc(F)cc2)c(-c2ccncc2)c1C
b: CCN1CC(NC(=O)Cn2nc(-c3ccc(F)cc3)c(-c3ccncc3)c2C)CN1CC
c: CCN1CCC(N(CC)C(=O)Cn2nc(-c3ccc(F)cc3)c(-c3ccncc3)c2C)C1 (stereo not shown)
Lookup: Place the items in sequence of falling P38 alpha kinase % inhib @ conc.. List the labels, following the order given in the request.
Found: a, b, c
(a: 77.0 % @, b: 47.0 % @, c: 32.0 % @)

====

study-system: human p38 kinase alpha (Homo sapiens, UniProt Q16539)
Construct: GST (N, cleaved yes); made in house; host or cells: E. coli DH10B
experiment-summary: p38 kinase in vitro assay, phosphorylation of biotinylated PHAS-I with 32P-ATP
Format: biochemical
applied-conditions: in vitro P38-alpha kinase inhibition; read-out: P38 alpha kinase IC50
pIC50: −log10 of the molar value.
observed-property: pIC50

compound	observed-property	recorded-measurement
CN(C)C(=O)NC(Cc1ccccc1)c1[nH]nc(-c2ccc(F)cc2)c1-c1ccncc1 (stereo not drawn) [Example B-0729]	pIC50	6.06
Cc1ccc(F)cc1S(=O)(=O)NC(C)c1[nH]nc(-c2ccc(F)cc2)c1-c1ccncc1 (stereo not drawn) [Example B-0628]	pIC50	7.64
O=S(=O)(NCCc1[nH]nc(-c2ccc(F)cc2)c1-c1ccncc1)c1ccc(Cl)cc1Cl	pIC50	7.10
CC(NC(=O)c1ccccc1Br)c1[nH]nc(-c2ccc(F)cc2)c1-c1ccncc1 (stereo not drawn)	pIC50	6.92

a: CCCNC(=O)NC(C)c1[nH]nc(-c2ccc(F)cc2)c1-c1ccncc1 (stereo not drawn)
b: O=S(=O)(NCCc1[nH]nc(-c2ccc(F)cc2)c1-c1ccncc1)c1ccc2ccccc2c1 [Example B-1068]
Lookup: Among a and b , whose measured pIC50 is the smaller figure? Return value: the label identifying the chosen record.
Found: a
(a: 5.80, b: 6.32)

====

study-system: human p38 kinase alpha (Homo sapiens, UniProt Q16539)
Construct: GST (N, cleaved yes); made in house; host or cells: E. coli DH10B
experiment-summary: p38 kinase in vitro assay, phosphorylation of biotinylated PHAS-I with 32P-ATP
Assay type: biochemical
applied-conditions: @ 1.0 uM; read-out: P38 alpha kinase % inhib @ conc.
Method: The coding region of the human p38a cDNA was obtained by PCR-amplification from RNA isolated from the human monocyte cell line THP.1. […] Random primer, dNTP's and Superscript™ reagents were all purchased from Life-Technologies, Gaithersburg, Mass. The reaction was incubated at 42° C. for 1 hour. […]
observed-property: inhibition at 1 µM (%)

Recorded results for 6 molecules are shown here.
molecule	study-system	measurement-units	inhibition at 1 µM
O=C(COCc1ccccc1)NCc1[nH]nc(-c2ccc(F)cc2)c1-c1ccncc1	human p38 kinase alpha (Homo sapiens, UniProt Q16539)	%	82
O=C(NCc1[nH]nc(-c2ccc(F)cc2)c1-c1ccncc1)c1ccc(Br)cc1	human p38 kinase alpha (Homo sapiens, UniProt Q16539)	%	74
O=C(NCc1[nH]nc(-c2ccc(F)cc2)c1-c1ccncc1)c1ccc(-c2ccccc2)cc1	human p38 kinase alpha (Homo sapiens, UniProt Q16539)	%	42
COc1ccc(CC(=O)NCc2[nH]nc(-c3ccc(F)cc3)c2-c2ccncc2)cc1	human p38 kinase alpha (Homo sapiens, UniProt Q16539)	%	92
CC(C)=CC(=O)NCc1[nH]nc(-c2ccc(F)cc2)c1-c1ccncc1	human p38 kinase alpha (Homo sapiens, UniProt Q16539)	%	94
O=C(NCc1[nH]nc(-c2ccc(F)cc2)c1-c1ccncc1)c1ccc(F)c(F)c1	human p38 kinase alpha (Homo sapiens, UniProt Q16539)	%	94

a: O=C(NCc1[nH]nc(-c2ccc(F)cc2)c1-c1ccncc1)c1ccc(I)cc1
b: CC(=O)OCC(=O)NCc1[nH]nc(-c2ccc(F)cc2)c1-c1ccncc1
c: CCCCCc1ccc(C(=O)NCc2[nH]nc(-c3ccc(F)cc3)c2-c2ccncc2)cc1
Lookup: Let's sort these by inhibition at 1 µM, smallest first. Go ahead? A complete answer lists every label in the requested sequence.
Found: c, a, b
(c: 30%, a: 56%, b: 80%)

====

study-system: human p38 kinase alpha (Homo sapiens, UniProt Q16539)
Construct: GST (N, cleaved yes); made in house; host or cells: E. coli DH10B
experiment-summary: p38 kinase in vitro assay, phosphorylation of biotinylated PHAS-I with 32P-ATP
Type: biochemical
applied-conditions: in vitro P38-alpha kinase; read-out: P38 alpha kinase IC50
Experimental: The coding region of the human p38a cDNA was obtained by PCR-amplification from RNA isolated from the human monocyte cell line THP.1. […] Random primer, dNTP's and Superscript™ reagents were all purchased from Life-Technologies, Gaithersburg, Mass. The reaction was incubated at 42° C. for 1 hour. […]
pIC50: −log10 of the molar value.
observed-property: pIC50

compound	pIC50
O=C(c1ccccc1Br)N1CCC(c2[nH]nc(-c3ccc(F)cc3)c2-c2ccncc2)CC1 [Example B-1398]	6.17

A: O=C(NCCCc1[nH]nc(-c2ccc(F)cc2)c1-c1ccncc1)c1ccc(F)c(F)c1 [Example B-1330]
B: O=C(c1cc(Cl)cc(Cl)c1)N1CCC(c2[nH]nc(-c3ccc(F)cc3)c2-c2ccncc2)CC1 [Example B-1419]
Lookup: Given the listed records, identify the one among A and B with higher pIC50. Kindly state the label of the option you pick.
Found: A
(A: 7.28, B: 6.52)
